Provenance of the data: patent US20160032001A1

- experimental system: T1, human RANKL protein (human, UniProt O14788 140-317, limits assumed)
- T1 sequence (looked up): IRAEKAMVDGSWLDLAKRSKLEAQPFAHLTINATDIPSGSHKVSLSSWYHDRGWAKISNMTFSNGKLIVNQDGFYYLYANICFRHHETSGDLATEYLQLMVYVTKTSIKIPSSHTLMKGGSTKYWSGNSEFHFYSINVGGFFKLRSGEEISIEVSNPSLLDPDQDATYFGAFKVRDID
- experimental details: surface plasmon resonance
endpoint name: Kd (nM)
Reply numerically in nM, unit not repeated.

Exercise: Would you mind telling me what Kd value was observed for clone EBI-51-22 rabbit anti-RANKL antibody (antibody, V domains shown) VH: QSVEESGGRLVTPGTLLTLTCTVSGFSLSTDVLSWVRQAPGKGLEWIGYTWSGGSTYYASWAKGRFTISKTSSTTVDLKITSPTTEDTATYFCARGFNPFDPWGPGTLVTVSS VL: DMTQTPASVSDPVGGTVTIKCQASQNIGSNLAWYQQKPGQRPKLLIYRASTLASGVSSRFKGSGSGTQFTLTISDLECADAATYYCQQGYSAGNVDNNAFGGGTEVVVK ?
Solution: 0.312
